Data provenance is paper PMC11191095.

System: C. glabrata NCPF 8018
Assay: microbe, parasite or virus in culture
Assay type: cell-based
Conditions: C. glabrata NCPF 8018; 50% growth inhibition; RPMI 1640 + 2% glucose, 37 °C, 20 h
Where a SMILES comes first, the peptide text is derived from it.
ASSAY_ENDPOINT: Modal MIC50

Recorded Modal MIC50 (compound C[C@H](NC(=O)CNC(=O)[C@H](CCCCN)NC(=O)[C@@H](N)CS)C(=O)N[C@@H](Cc1ccccc1)C(=O)N[C@@H](CCCCN)C(=O)N[C@@H](CCC(N)=O)C(=O)N[C@H](C(=O)N[C@@H](CS)C(=O)N[C@@H](CCCCN)C(=O)N[C@@H](CS)C(=O)N[C@@H](Cc1ccc(O)cc1)C(N)=O)[C@@H](C)O [Os(11-22)a] (H-CKGAFKQTCKCY-NH2; N-terminus assumed) ): > 128 mg/L

* * *

System: human erythrocytes
Assay: In vitro hemolytic activity
Format: cell-based
Conditions: human erythrocytes in PBS, 1 h, 37 °C, OD550; from dose response curves
Where a SMILES comes first, the peptide text is derived from it.
ASSAY_ENDPOINT: HC10 (concentration causing 10% hemolysis) (µg/mL)
Numbers only; they are read as µg/mL.

GET /values?item= CC[C@H](C)[C@H](NC(=O)[C@H](C)NC(=O)[C@H](CCCCN)NC(=O)[C@@H]1CCCN1C(=O)[C@@H](NC(=O)[C@H](CC(C)C)NC(=O)[C@H](CO)NC(=O)[C@H](Cc1ccccc1)NC(=O)[C@H](CC(C)C)NC(=O)[C@@H](N)Cc1ccccc1)[C@@H](C)CC)C(=O)NCC(=O)NCC(=O)N[C@@H](CC(C)C)C(=O)N[C@H](C(=O)N[C@@H](CO)C(=O)N[C@@H](C)C(=O)N[C@@H](Cc1ccccc1)C(=O)N[C@@H](CCCCN)C(=O)O)[C@@H](C)CC &system= human erythrocytes returns HC10 (concentration causing 10% hemolysis): 128

GET /values?item= CC(C)[C@H](NC(=O)CNC(=O)[C@H](CCCNC(=N)N)NC(=O)[C@H](CCCNC(=N)N)NC(=O)[C@H](CS)NC(=O)[C@@H](NC(=O)[C@H](CS)NC(=O)[C@@H](N)CCCNC(=N)N)C(C)C)C(=O)N[C@@H](CS)C(=O)N[C@@H](CCCNC(=N)N)C(=O)N[C@@H](CS)C(=O)N[C@H](C(=O)N[C@@H](CS)C(=O)N[C@@H](CCCNC(=N)N)C(=O)N[C@@H](CCCNC(=N)N)C(N)=O)C(C)C [BTD15a] (H-RCVCRRGVCRCVCRR-NH2; N-terminus assumed) &system= human erythrocytes returns HC10 (concentration causing 10% hemolysis): 9

GET /values?item= CC[C@H](C)[C@H](NC(=O)[C@H](C)NC(=O)[C@H](CCCCN)NC(=O)[C@@H]1CCCN1C(=O)[C@@H](NC(=O)[C@H](CC(C)C)NC(=O)[C@H](CCCCN)NC(=O)[C@H](Cc1ccccc1)NC(=O)[C@H](CC(C)C)NC(=O)[C@@H](N)Cc1ccccc1)[C@@H](C)CC)C(=O)N[C@@H](CCCCN)C(=O)N[C@@H](CCCCN)C(=O)N[C@@H](CC(C)C)C(=O)N[C@H](C(=O)N[C@@H](CO)C(=O)N[C@@H](CCCCN)C(=O)N[C@@H](Cc1ccccc1)C(=O)N[C@@H](CCCCN)C(=O)O)[C@@H](C)CC [AamAP1-Lys] (H-FLFKLIPKAIKKLISKFK-OH) &system= human erythrocytes returns HC10 (concentration causing 10% hemolysis): 94

GET /values?item= CC[C@H](C)[C@H](NC(=O)[C@H](CCCCN)NC(=O)[C@H](CCC(=O)O)NC(=O)[C@H](Cc1c[nH]c2ccccc12)NC(=O)[C@H](Cc1ccccc1)NC(=O)[C@H](CCCCN)NC(=O)CNC(=O)[C@H](CC(C)C)NC(=O)[C@H](C)N)C(=O)N[C@@H](CCCCN)C(=O)N[C@@H](CO)C(=O)N[C@@H](CC(C)C)C(=O)N[C@@H](Cc1ccccc1)C(N)=O [A1F5K8-IsCTa] (H-ALGKFWEKIKSLF-NH2) &system= human erythrocytes returns HC10 (concentration causing 10% hemolysis): 102

* * *

System: S. aureus (MRSA) USA300
Test: microbe, parasite or virus in culture
Assay type: cell-based, Staphylococcus aureus
Settings: S. aureus (MRSA) USA300 (R); shown in µM
Where a SMILES comes first, the peptide text is derived from it.
ASSAY_ENDPOINT: Modal MIC

Recorded Modal MIC (compound CC[C@H](C)[C@H](NC(=O)[C@@H](N)Cc1c[nH]c2ccccc12)C(=O)N[C@@H](CCCCN)C(=O)N[C@@H](CO)C(=O)N[C@H](C(=O)N[C@@H](C)C(=O)N[C@@H](CCCCN)C(=O)N[C@@H](CCCCN)C(N)=O)[C@@H](C)O [Opis8a] (H-WIKSTAKK-NH2) ): > 133.2 µM

Recorded Modal MIC (compound CC(C)C[C@H](NC(=O)[C@H](CCCCN)NC(=O)[C@H](CO)NC(=O)[C@H](CCCCN)NC(=O)[C@H](Cc1c[nH]c2ccccc12)NC(=O)[C@H](C)NC(=O)[C@H](CCCCN)NC(=O)[C@@H](N)CCCCN)C(=O)N[C@@H](C)C(=O)N[C@@H](CCCCN)C(=O)N[C@@H](CCCCN)C(=O)N[C@@H](CC(C)C)C(=O)N[C@@H](CCCNC(=N)N)C(=O)N[C@@H](C)C(=O)N[C@@H](CCCCN)C(=O)NCC(=O)N[C@@H](CCCCN)C(N)=O [PS-PB-14a] (H-KKAWKSKLAKKLRAKGK-NH2) ): > 63.8 µM

Recorded Modal MIC (compound CC(C)C[C@H](NC(=O)[C@H](CCCCN)NC(=O)[C@H](CO)NC(=O)[C@H](CCCCN)NC(=O)[C@@H](N)Cc1c[nH]c2ccccc12)C(=O)N[C@@H](C)C(=O)N[C@@H](CCCCN)C(=O)N[C@@H](CCCCN)C(N)=O [PS-PB-8a] (H-WKSKLAKK-NH2) ): > 127.2 µM

* * *

I'd appreciate it if you could supply Modal MIC values for the items below.
Tested on: S. aureus (MSSA) ATCC 9144
Assay: microbe, parasite or virus in culture
Format: cell-based, Staphylococcus aureus
Conditions: S. aureus (MSSA) ATCC 9144 (S); shown in µM
Where a SMILES comes first, the peptide text is derived from it.

Recorded Modal MIC (compound CC[C@H](C)[C@H](NC(=O)[C@H](CCCCN)NC(=O)[C@H](CC(C)C)NC(=O)[C@H](C)NC(=O)[C@H](C)NC(=O)[C@H](CCCCN)NC(=O)[C@H](CC(C)C)NC(=O)[C@H](C)NC(=O)[C@@H](N)CCCCN)C(=O)NCC(=O)N[C@@H](C)C(=O)N[C@@H](CC(N)=O)C(N)=O [CPF-P3-12a] (H-KALKAALKIGAN-NH2) ): > 103.8 µM

Recorded Modal MIC (compound C[C@H](NC(=O)CNC(=O)[C@H](CCCCN)NC(=O)[C@@H](N)CS)C(=O)N[C@@H](Cc1ccccc1)C(=O)N[C@@H](CCCCN)C(=O)N[C@@H](CCC(N)=O)C(=O)N[C@H](C(=O)N[C@@H](CS)C(=O)N[C@@H](CCCCN)C(=O)N[C@@H](CS)C(=O)N[C@@H](Cc1ccc(O)cc1)C(N)=O)[C@@H](C)O [Os(11-22)a] (H-CKGAFKQTCKCY-NH2; N-terminus assumed) ): > 91.7 µM

Recorded Modal MIC (compound CC(C)C[C@H](NC(=O)[C@H](CCCCN)NC(=O)[C@H](CO)NC(=O)[C@H](CCCCN)NC(=O)[C@H](Cc1c[nH]c2ccccc12)NC(=O)[C@H](C)NC(=O)[C@H](CCCCN)NC(=O)[C@@H](N)CCCCN)C(=O)N[C@@H](C)C(=O)N[C@@H](CCCCN)C(=O)N[C@@H](CCCCN)C(=O)N[C@@H](CC(C)C)C(=O)N[C@@H](CCCNC(=N)N)C(=O)N[C@@H](C)C(=O)N[C@@H](CCCCN)C(=O)NCC(=O)N[C@@H](CCCCN)C(N)=O [PS-PB-14a] (H-KKAWKSKLAKKLRAKGK-NH2) ): > 63.8 µM

Recorded Modal MIC (compound CC[C@H](C)[C@H](N)C(=O)N[C@@H](CCCNC(=N)N)C(=O)NCC(=O)N[C@@H](Cc1ccc(O)cc1)C(=O)N[C@@H](CCCCN)C(=O)NCC(=O)NCC(=O)N[C@@H](Cc1ccc(O)cc1)C(=O)N[C@@H](CS)C(=O)N[C@@H](CCCCN)C(N)=O [Os(3-12)a] (H-IRGYKGGYCK-NH2) ): > 112 µM

* * *

System: HaCat cell line
Assay: In vitro HaCat cytotoxicity (MTT)
Assay type: cell-based, human
Settings: 21 h exposure, OD570, relative to untreated control
Where a SMILES comes first, the peptide text is derived from it.
I'd appreciate it if you could supply % HaCat cell death at initial screening (256μg/mL) ± SD values for the items below.
Numbers only; they are read as %.

Recorded % HaCat cell death at initial screening (256μg/mL) ± SD (compound CC(C)[C@H](NC(=O)CNC(=O)[C@H](CCCNC(=N)N)NC(=O)[C@H](CCCNC(=N)N)NC(=O)[C@H](CS)NC(=O)[C@@H](NC(=O)[C@H](CS)NC(=O)[C@@H](N)CCCNC(=N)N)C(C)C)C(=O)N[C@@H](CS)C(=O)N[C@@H](CCCNC(=N)N)C(=O)N[C@@H](CS)C(=O)N[C@H](C(=O)N[C@@H](CS)C(=O)N[C@@H](CCCNC(=N)N)C(=O)N[C@@H](CCCNC(=N)N)C(N)=O)C(C)C [BTD15a] (H-RCVCRRGVCRCVCRR-NH2; N-terminus assumed) ): 20

Recorded % HaCat cell death at initial screening (256μg/mL) ± SD (compound CC[C@H](C)[C@H](NC(=O)[C@H](C)NC(=O)[C@H](CCCCN)NC(=O)[C@@H]1CCCN1C(=O)[C@@H](NC(=O)[C@H](CC(C)C)NC(=O)[C@H](CO)NC(=O)[C@H](Cc1ccccc1)NC(=O)[C@H](CC(C)C)NC(=O)[C@@H](N)Cc1ccccc1)[C@@H](C)CC)C(=O)NCC(=O)NCC(=O)N[C@@H](CC(C)C)C(=O)N[C@H](C(=O)N[C@@H](CO)C(=O)N[C@@H](C)C(=O)N[C@@H](Cc1ccccc1)C(=O)N[C@@H](CCCCN)C(=O)O)[C@@H](C)CC ): 85

Recorded % HaCat cell death at initial screening (256μg/mL) ± SD (compound CC[C@H](C)[C@H](NC(=O)[C@H](C)NC(=O)[C@H](CCCCN)NC(=O)[C@@H]1CCCN1C(=O)[C@@H](NC(=O)[C@H](CC(C)C)NC(=O)[C@H](CO)NC(=O)[C@H](Cc1ccccc1)NC(=O)[C@H](CC(C)C)NC(=O)[C@@H](N)Cc1ccccc1)[C@@H](C)CC)C(=O)NCC(=O)NCC(=O)N[C@@H](CC(C)C)C(=O)N[C@H](C(=O)N[C@@H](CO)C(=O)N[C@@H](C)C(=O)N[C@@H](Cc1ccccc1)C(=O)N[C@@H](CCCCN)C(N)=O)[C@@H](C)CC ): 97.6
